- assayInfo: Cytotoxicity test (MTT), U937
- Type: cell-based
- statedConditions: human, U937 cells (monocytic blood cancer-derived cell line); U937, 48 h, 100 μM; read-out: Cell viability (% of control)
readout: viability at 48 h, 100 µM

1) Cc1nc(NC(=S)Nc2ccc(Cl)cc2)c(C)c(C)c1O [Compound 18-6] = 80.7%

Lab note: each compound below needs its viability at 48 h, 100 µM filled in.
1. Cc1nc(NC(=O)NS(=O)(=O)c2ccccc2)c(C)c(C)c1O [Compound 16-6]
2. O=c1[nH]cc(F)c(=O)[nH]1 [5-Fluorouracil, reference compound]
3. CCCNC(=O)Nc1nc(C)c(O)c(C)c1C [Compound 16-1]
4. Cc1nc(NC(=S)NC2CCCCC2)c(C)c(C)c1O [Compound 18-3]

Result ::
1. 84.9%
2. 59.7%
3. 44.2%
4. 84.3%
